Reference for the values: ChEMBL document CHEMBL1131608

Each entry below carries its recorded inhibition.
- measured.on: Adenosine receptor A2a (Rattus norvegicus) (UniProt P30543)
- Sequence (P30543 whole entry): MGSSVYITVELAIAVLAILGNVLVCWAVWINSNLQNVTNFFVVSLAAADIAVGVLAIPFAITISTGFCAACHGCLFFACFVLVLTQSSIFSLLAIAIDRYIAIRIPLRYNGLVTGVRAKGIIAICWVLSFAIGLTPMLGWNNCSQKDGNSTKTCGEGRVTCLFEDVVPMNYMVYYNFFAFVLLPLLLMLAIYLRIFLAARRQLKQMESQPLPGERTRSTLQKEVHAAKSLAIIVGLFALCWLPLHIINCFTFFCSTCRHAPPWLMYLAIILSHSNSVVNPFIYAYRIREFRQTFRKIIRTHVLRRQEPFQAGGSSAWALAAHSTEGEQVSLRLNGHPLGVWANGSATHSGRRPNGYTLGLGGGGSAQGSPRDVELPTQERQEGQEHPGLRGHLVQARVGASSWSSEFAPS
- protocol.text: Binding affinity for adenosine A2A receptor as displacement of [3H]-CGS- 21680 from rat striatal membranes at 10e-4 M
- Assay type: cell membranes
- study.conditions: Membrane

{"columns": ["compound", "value.modifier", "inhibition, %"],
 "data": [
  ["CCOC(=O)C1=C(C)NC(C2CCCCC2)=C(C(=O)OCc2ccccc2)C1C#Cc1ccccc1 (configuration not stated)", "=", 20],
  ["CCCC1C(C(=O)OCC)=C(c2ccccc2)N=C(C)/C1=C(/O)SCC (configuration not stated)", "=", 29],
  ["CCOC(=O)C1=C(c2ccccc2)N=C(CC)/C(=C(/O)OCC)C1C (configuration not stated)", "<", 10],
  ["CCOC(=O)C1=C(C)NC(C2CCC2)=C(C(=O)OCc2ccccc2)C1C#Cc1ccccc1 (configuration not stated)", "=", 10],
  ["CCS/C(O)=C1\\C(C)=NC(c2ccccc2)=C(C(=O)OCc2ccccc2)C1CC (configuration not stated)", "=", 14.3],
  ["CCOC(=O)C1=C(C)NC(C2CC2)=C(C(=O)OCc2ccccc2)C1C#Cc1ccccc1 (configuration not stated)", "=", 10],
  ["CCOC(=O)C1=C(c2ccccc2)N=C(C)/C(=C(/O)SCCOC)C1CC (configuration not stated)", "=", 12.5]
]}

====

Each entry below carries its recorded inhibition.
- measured.on: Adenosine receptor A1 (Rattus norvegicus)
- Sequence (whole entry): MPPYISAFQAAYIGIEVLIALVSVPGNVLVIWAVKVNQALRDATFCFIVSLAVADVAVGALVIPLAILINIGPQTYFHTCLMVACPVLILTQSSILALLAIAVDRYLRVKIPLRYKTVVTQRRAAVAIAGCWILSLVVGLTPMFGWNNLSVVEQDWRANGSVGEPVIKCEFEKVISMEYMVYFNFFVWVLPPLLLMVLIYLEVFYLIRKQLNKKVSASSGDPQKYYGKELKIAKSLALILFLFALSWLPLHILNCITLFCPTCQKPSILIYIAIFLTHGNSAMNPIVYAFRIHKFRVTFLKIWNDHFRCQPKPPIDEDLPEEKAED
- protocol.text: Binding affinity towards adenosine A1 receptor by measuring its ability to displace [3H]-R-PIA in rat brain membranes at a concentration of 10e-4 M
- Type: cell membranes

{"columns": ["compound", "value.modifier", "inhibition, %"],
 "data": [
  ["CCOC(=O)C1=C(C)NC(C2CCC2)=C(C(=O)OCc2ccccc2)C1C#Cc1ccccc1 (stereo not given)", "=", 36],
  ["CCOC(=O)c1c(C)nc(C2CCC2)c(C(=O)OCc2ccccc2)c1C#Cc1ccccc1", "<", 10],
  ["CCOC(=O)c1c(-c2ccccc2)nc(C2CCC2)c(C(=O)SCC)c1CC", "=", 30],
  ["CCCC1C(C(=O)OCC)=C(c2ccccc2)N=C(C)/C1=C(/O)SCC (stereo not given)", "=", 48],
  ["CCOC(=O)c1c(-c2ccccc2)nc(C)c(C(=O)SCC)c1CC", "=", 14.8],
  ["CCOC(=O)C1=C(c2ccccc2)N=C(CC)/C(=C(/O)SCC)C1CC (stereo not given)", "=", 34],
  ["CCOC(=O)C1=C(c2ccccc2)N=C(C)/C(=C(/O)SCC)C1CC (stereo not given)", "=", 35.4],
  ["CCCOC(=O)c1c(-c2ccccc2)nc(CC)c(C(=O)SCC)c1CCC", "=", 15.6],
  ["CCOC(=O)c1c(-c2ccccc2)nc(C)c(C(=O)SCCOC)c1CC", "=", 36],
  ["CCOC(=O)c1c(C)nc(-c2ccccc2)c(C(=O)OCC)c1C(OC)OC", "=", 1.95]
]}
